- TESTED SYSTEM: Bombyx mori EcR (VP16 fusion, CVBE switch construct) (Bombyx mori)
- Sequence (P49881 86-606): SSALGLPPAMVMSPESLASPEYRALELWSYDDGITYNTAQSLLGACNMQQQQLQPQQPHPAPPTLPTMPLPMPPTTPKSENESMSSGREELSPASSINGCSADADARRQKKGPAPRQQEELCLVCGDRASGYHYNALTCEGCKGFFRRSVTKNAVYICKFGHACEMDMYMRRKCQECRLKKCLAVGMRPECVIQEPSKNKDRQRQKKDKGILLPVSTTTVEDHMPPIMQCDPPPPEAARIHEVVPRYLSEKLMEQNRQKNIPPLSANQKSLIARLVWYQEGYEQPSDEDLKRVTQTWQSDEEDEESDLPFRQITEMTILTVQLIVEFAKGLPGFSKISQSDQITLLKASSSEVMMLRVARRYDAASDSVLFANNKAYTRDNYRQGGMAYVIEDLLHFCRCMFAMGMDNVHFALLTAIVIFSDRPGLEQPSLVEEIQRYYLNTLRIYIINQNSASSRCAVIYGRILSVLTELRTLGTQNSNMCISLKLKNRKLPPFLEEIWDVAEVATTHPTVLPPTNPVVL
- Sequence (P19793 whole entry partner, the tested form may be a part): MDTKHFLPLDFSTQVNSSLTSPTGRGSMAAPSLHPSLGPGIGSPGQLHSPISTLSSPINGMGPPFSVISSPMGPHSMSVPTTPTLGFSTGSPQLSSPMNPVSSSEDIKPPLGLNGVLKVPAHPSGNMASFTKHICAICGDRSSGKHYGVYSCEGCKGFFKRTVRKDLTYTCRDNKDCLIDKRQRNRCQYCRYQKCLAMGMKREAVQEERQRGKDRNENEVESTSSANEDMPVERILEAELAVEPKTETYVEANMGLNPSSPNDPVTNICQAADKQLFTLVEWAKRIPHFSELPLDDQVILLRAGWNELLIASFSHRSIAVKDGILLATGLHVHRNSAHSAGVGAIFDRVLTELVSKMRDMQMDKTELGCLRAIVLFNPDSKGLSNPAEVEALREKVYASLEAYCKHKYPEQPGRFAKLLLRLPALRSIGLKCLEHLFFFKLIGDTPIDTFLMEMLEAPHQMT
- PROCEDURE TEXT: Z3 Assay (HEK-293 cells with CVBE and 6XEcRE LacZ, β-galactosidase reporter)
- SETTINGS: 3.3 uM ligand; ligand treated / DMSO treated cells; average of two wells
List of Fold Induction, Z3 Assay, 3.3 uM values.
API doc: respond with a numeric literal and nothing else, no unit.

See these solved cases before continuing.
>>> print(df.to_string())
                                   compound                             tested_system  assay_value
0  Cc1c(Cl)cccc1C(=O)NN(C(=O)c1cccc(Cl)c1)C(C)(C)C [RG-101202]  Bombyx mori EcR (VP16 fusion, CVBE switch construct) (Bombyx mori)          195
1  CC(=O)Oc1cccc(C(=O)NN(C(=O)c2cc(C)cc(C)c2)C(C)(C)C)c1C [RG-100749]  Bombyx mori EcR (VP16 fusion, CVBE switch construct) (Bombyx mori)          874
2  Cc1cc(C)cc(C(=O)N(NC(=O)c2cccc(OC(F)(F)F)c2C)C(C)(C)C)c1 [RG-101692]  Bombyx mori EcR (VP16 fusion, CVBE switch construct) (Bombyx mori)          435

input: Supply Fold Induction, Z3 Assay, 3.3 uM value. Item: COc1cccc(C(=O)NN(C(=O)c2cc(C)cc(C)c2)C(C)(C)C)c1C[S+](C)[O-] (stereo not shown) [RG-115172]
output: 1
